Entry source: patent US8039668B2

Test system: H1299 cell line
assay: Cell viability, ATP-LITE assay
Type: cell-based, human
assay-conditions: Table 3; ATP-LITE assay; heading: EC50 H1299; read-out: EC50 H1299
test-readout: EC50 (µM)
Please reply with the bare figure in µM and do not write the unit itself.

Any idea what EC50 was measured for CC(=O)O.Cc1cc2c(C(C)C)c(O)c(O)c(C=O)c2c(O)c1-c1c(C)cc2c(C(C)C)c(O)c(O)c(C=O)c2c1O [Gossypol, reference compound] ?
6

---

assay: Liver microsomal stability
Format: in vitro ADME, rat
assay-conditions: Table 6; rat liver microsomes, 1 h
test-readout: Microsomal Stability (T = 1 h) (%)
# number only, unit % dropped from output

Requested field: Microsomal Stability (T = 1 h). Item: Cc1cc2c(C(=O)NCC3CCCCC3)c(O)c(O)cc2c(O)c1-c1c(C)cc2c(C(=O)NCC3CCCCC3)c(O)c(O)cc2c1O [Compound 8m]
90

Now consider Cc1cc2c(C(C)C)c(O)c(O)cc2c(O)c1-c1c(C)cc2c(C(C)C)c(O)c(O)cc2c1O [Apogossypol, reference compound] .
64

Now try CCc1ccc(CCNC(=O)c2c(O)c(O)cc3c(O)c(-c4c(C)cc5c(C(=O)NCCc6ccc(CC)cc6)c(O)c(O)cc5c4O)c(C)cc23)cc1 [Compound 8q] .
87

---

EC50 reference
Tested on: BP3 human B-cell lymphoma cell line
assay: Annexin V-FITC and propidium iodide assay
Assay type: cell-based
assay-conditions: Homo sapiens, B-cell; Table 3; Annexin V-FITC and propidium iodide assay; read-out: EC50 BP3
// units = nM; emit number, no label

Example entries begin here.
> print(dat)
                            chemical.string  test.readout  observed.value
1  Cc1cc2c(C(=O)NCCc3cccc(Cl)c3)c(O)c(O)cc2c(O)c1-c1c(C)cc2c(C(=O)NCCc3cccc(Cl)c3)c(O)c(O)cc2c1O          EC50             410
2  CCc1ccc(CCNC(=O)c2c(O)c(O)cc3c(O)c(-c4c(C)cc5c(C(=O)NCCc6ccc(CC)cc6)c(O)c(O)cc5c4O)c(C)cc23)cc1          EC50             200
3  Cc1cc2c(C(=O)NCC3CCCCC3)c(O)c(O)cc2c(O)c1-c1c(C)cc2c(C(=O)NCC3CCCCC3)c(O)c(O)cc2c1O          EC50             900

Okay, next one:
Form entry - test system: BP3 human B-cell lymphoma cell line; read-out: EC50; molecule: `Cc1cc2c(C(=O)NCCc3ccc(Cl)cc3)c(O)c(O)cc2c(O)c1-c1c(C)cc2c(C(=O)NCCc3ccc(Cl)cc3)c(O)c(O)cc2c1O`
700

---

This section presents molecules with their documented pIC50 values.
system-tested: Bfl-1 (Homo sapiens, UniProt Q16548)
Sequence (Q16548 1-175): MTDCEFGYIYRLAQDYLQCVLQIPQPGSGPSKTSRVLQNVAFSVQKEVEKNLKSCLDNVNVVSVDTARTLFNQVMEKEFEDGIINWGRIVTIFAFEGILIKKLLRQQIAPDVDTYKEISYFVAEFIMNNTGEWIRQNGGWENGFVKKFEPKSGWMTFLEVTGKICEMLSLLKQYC
# pIC50: negative log10 of molar concentration; output just the value

Illustrative cases are given below, each with its answer.
molecule	system-tested	pIC50
CCc1ccc(CCNC(=O)c2c(O)c(O)cc3c(O)c(-c4c(C)cc5c(C(=O)NCCc6ccc(CC)cc6)c(O)c(O)cc5c4O)c(C)cc23)cc1 [Compound 8q]	Bfl-1 (Homo sapiens, UniProt Q16548)	5.89
Cc1cc2c(C(=O)NC(C)c3ccc(Cl)cc3)c(O)c(O)cc2c(O)c1-c1c(C)cc2c(C(=O)NC(C)c3ccc(Cl)cc3)c(O)c(O)cc2c1O (stereo not drawn) [Compound 8k]	Bfl-1 (Homo sapiens, UniProt Q16548)	6.40

I'd like to know its pIC50. The molecule in question is Cc1cc2c(C(=O)NC3Cc4ccccc4C3)c(O)c(O)cc2c(O)c1-c1c(C)cc2c(C(=O)NC3Cc4ccccc4C3)c(O)c(O)cc2c1O [Compound 8s]
6.17

Now consider Cc1cc2c(CCc3ccccc3)c(O)c(O)cc2c(O)c1-c1c(C)cc2c(CCc3ccccc3)c(O)c(O)cc2c1O [Compound 12e] .
5.30

One more molecule: Cc1cc2c(C(=O)NCC3CCCCC3)c(O)c(O)cc2c(O)c1-c1c(C)cc2c(C(=O)NCC3CCCCC3)c(O)c(O)cc2c1O [Compound 8m]
5.70
